assay: qHTS for Inhibitors of human tyrosyl-DNA phosphodiesterase 1 (TDP1): qHTS in cells in absence of CPT; conditions: DT40 Tdp1-/- hTDP1 cells, no CPT, ATP luminescence, 48 h; also: nearly all actives have a fitted effect of over 55% in size
In all, about 420,000 compounds went through this assay and about 64,000 (15%) were called active. Inconclusive results (about 27%) are left out. Calls follow the shape of the dose curve; as a rule, active = well fitted inhibition curve with a large enough effect; inconclusive = small, poorly fitted or top-dose-only effect; inactive = flat fitted curve, though single readings scatter. These entries were drawn from the full list.
Give your call using only these classes: 1 = active, -1 = inactive

**Query** I would be grateful if you could indicate the recorded call for `CCOC(=O)N1CCN(S(=O)(=O)c2ccc(C(=O)Nc3ccc(F)cc3F)cc2)CC1` .
**Result** 1

**Query** I would be grateful if you could indicate the recorded call for COc1ccc(C(=O)N2CCCCC2c2cc(C(=O)Nc3ccc(F)c(Cl)c3)no2)cc1 (stereo not drawn) .
**Result** 1

**Query** I would be grateful if you could indicate the recorded call for `Cc1cccc(NC(=O)c2nnn(-c3cccc(C(F)(F)F)c3)c2N)c1` .
**Result** -1

**Query** I would be grateful if you could indicate the recorded call for COc1cc(Cl)cc(C2NC(=O)NC(C)=C2C(=O)NCc2ccccc2)c1O (stereo not drawn) .
**Result** -1

**Query** I would be grateful if you could indicate the recorded call for `Cc1ccc(S(=O)(=O)c2c[nH]c3ccc(Cl)cc3c2=O)cc1` .
**Result** -1

**Query** I would be grateful if you could indicate the recorded call for `Cn1ccs/c1=N\S(=O)(=O)c1ccc(C(C)(C)C)cc1` .
**Result** -1

**Query** I would be grateful if you could indicate the recorded call for `Cc1cccc(C=CC(=O)c2ccc(Cl)cc2)c1` .
**Result** 1

**Query** I would be grateful if you could indicate the recorded call for `Nc1nc(/C(=C/CC(=O)O)C(=O)N[C@@H]2C(=O)N3C(C(=O)O)=CCS[C@H]23)cs1` .
**Result** -1

**Query** I would be grateful if you could indicate the recorded call for O=C1NC(CC(=O)N2CCC(n3c(C4CCC4)nc4cccnc43)CC2)c2ccccc21 (stereo not drawn) .
**Result** -1

**Query** I would be grateful if you could indicate the recorded call for `CCN(CCCNC(=O)CCn1c(=O)[nH]c2ccsc2c1=O)c1ccccc1` .
**Result** -1

**Query** I would be grateful if you could indicate the recorded call for `Cc1cc(C)nc(NC(=O)/C=C/c2ccc(Cl)cc2)n1` .
**Result** -1

**Query** I would be grateful if you could indicate the recorded call for `Cc1cc(/C=C2/C(=N)N3C(=NC2=O)SN=C3S(C)(=O)=O)c(C)n1-c1ccccc1` .
**Result** -1

**Query** I would be grateful if you could indicate the recorded call for `Cc1onc(-c2c(Cl)cccc2Cl)c1C(=O)c1c[nH]c(C(=O)NC2CC2)c1` .
**Result** -1

**Query** I would be grateful if you could indicate the recorded call for `CC(C)C(=O)Nc1nnc(Sc2ccc(N(C)C)cc2)s1` .
**Result** -1

**Query** I would be grateful if you could indicate the recorded call for `CCc1nnc(NS(=O)(=O)c2ccc(NC(=O)c3cccc(OC(F)(F)C(F)F)c3)cc2)s1` .
**Result** -1

**Query** I would be grateful if you could indicate the recorded call for `O=C(Oc1ccc([N+](=O)[O-])cc1)c1ccc2ccccc2n1` .
**Result** -1

**Query** I would be grateful if you could indicate the recorded call for Cc1cc(=O)n2nc(N3CCCC3C(=O)NCCCN3CC(C)CC(C)C3)sc2n1 (stereo not drawn) .
**Result** -1

**Query** I would be grateful if you could indicate the recorded call for `CCOc1ccccc1-n1c(SCC(=O)NCc2ccco2)nnc1-c1ccncc1` .
**Result** -1

**Query** I would be grateful if you could indicate the recorded call for CCN(CC)C(=O)CSC1c2ccccc2C(=O)N1c1ccccc1 (stereo not drawn) .
**Result** -1

**Query** I would be grateful if you could indicate the recorded call for CCCNC(=O)c1cc(C2CCCCN2C(=O)OC)on1 (stereo not drawn) .
**Result** -1

**Query** I would be grateful if you could indicate the recorded call for `CCOC(=O)CC1=CC(=O)Nc2ccccc2N1` .
**Result** -1

**Query** I would be grateful if you could indicate the recorded call for `CC(C)(C)C(=O)NCCCNc1ccc([N+](=O)[O-])cc1` .
**Result** -1

**Query** I would be grateful if you could indicate the recorded call for CCC(=O)N1CCc2cc(S(=O)(=O)NC(C(=O)N3CCc4ccccc4C3)C(C)C)ccc21 (stereo not drawn) .
**Result** -1

**Query** I would be grateful if you could indicate the recorded call for CCN(CC)S(=O)(=O)c1ccc(Cl)c(C(=O)NC(C)C(c2cccs2)N2CCCC2)c1 (stereo not drawn) .
**Result** 1

**Query** I would be grateful if you could indicate the recorded call for `CCOCCCNC(=O)c1ccc(CS(=O)(=O)c2cccc(C(F)(F)F)c2)o1` .
**Result** -1

**Query** I would be grateful if you could indicate the recorded call for `COc1ccc(C(=O)Nc2c(Cl)cc(Cl)cc2C(=O)N2CCC(C)CC2)cc1` .
**Result** -1

**Query** I would be grateful if you could indicate the recorded call for `O=C1c2cccnc2C(=O)N1Cc1cccs1` .
**Result** -1

**Query** I would be grateful if you could indicate the recorded call for `CC(C)(C)OC(=O)N/N=C/c1ccc(C(=O)O)cc1` .
**Result** -1

**Query** I would be grateful if you could indicate the recorded call for CCN(CC(=O)Nc1ccc(NC(C)=O)cc1)C(=O)C1CC(=O)N(c2ccc3c(c2)OCCO3)C1 (stereo not drawn) .
**Result** -1

**Query** I would be grateful if you could indicate the recorded call for `O=C(NCCCO)C(=O)Nc1c2c(nn1-c1ccc(F)cc1)CSC2` .
**Result** -1

**Query** I would be grateful if you could indicate the recorded call for `NC1=CC(=O)C(=O)c2cccnc21` .
**Result** 1

**Query** I would be grateful if you could indicate the recorded call for `O=C(CSc1nnc(-c2ccncc2)n1-c1ccccc1)Nc1ccc(Cl)c(Cl)c1` .
**Result** -1

**Query** I would be grateful if you could indicate the recorded call for `CC(=O)c1nn(-c2cccc(C(F)(F)F)c2)c(=O)[nH]c1=O` .
**Result** -1

**Query** I would be grateful if you could indicate the recorded call for `COc1ccc(Nc2nc(=O)[nH]nc2C)cc1` .
**Result** -1

**Query** I would be grateful if you could indicate the recorded call for CCOC(=O)C1C(c2ccc(O)cc2)NC(=O)NC1(O)C(F)(F)F (stereo not drawn) .
**Result** -1

**Query** I would be grateful if you could indicate the recorded call for `COc1cc(OC)c(-n2c(C)cc(C=O)c2C)cc1Cl` .
**Result** -1

**Query** I would be grateful if you could indicate the recorded call for `Cc1cc(C(=O)Nc2cccc(C(F)(F)F)c2)c2c(C)nn(-c3cccc(F)c3)c2n1` .
**Result** 1

**Query** I would be grateful if you could indicate the recorded call for CCC(=O)N1CCc2cc(Br)c(S(=O)(=O)NCCN3CCCCC3CC)cc21 (stereo not drawn) .
**Result** -1

**Query** I would be grateful if you could indicate the recorded call for `COc1ccc(NC(=S)Nc2ccc(S(N)(=O)=O)cc2)c(C)c1` .
**Result** -1

**Query** I would be grateful if you could indicate the recorded call for Cc1ccc(NC(=O)C(Cc2ccccc2)NS(=O)(=O)c2ccc3c(c2)oc(=O)n3C)cc1C (stereo not drawn) .
**Result** -1

**Query** I would be grateful if you could indicate the recorded call for `COc1ccc(Nc2cc(Sc3ccc(OC)cc3)ncn2)cc1` .
**Result** 1

**Query** I would be grateful if you could indicate the recorded call for `C=CCN(CC=C)CCOc1ccccc1[N+](=O)[O-]` .
**Result** -1

**Query** I would be grateful if you could indicate the recorded call for `Cc1nn(C(=O)c2c(F)cccc2F)c(C)c1S(=O)(=O)N1CCOCC1` .
**Result** -1
